# IC50 annotations
# Tested on: HEK293
# EXPERIMENT NOTES: Cellular IC50 HEK293
# Format: cell-based
# ASSAY CONTEXT: Homo sapiens, HEK293; read-out: Cellular IC50 HEK 293
READOUT NAME: IC50 (nM)

| ENTRY SMILES | READOUT NAME | VALUE MEASURED |
| --- | --- | --- |
| CCOc1ccc(-c2nnc([C@H]3C[C@H](NC(=O)c4cc[n+]([O-])c5cc(F)cnc45)C3)n2-c2ccccc2F)nc1 | IC50 | 2.8 |
| CCOc1ccc(-c2nnc([C@H]3C[C@H](NC(=O)c4cccc(C(N)=O)n4)C3)n2-c2ccccc2F)nc1 | IC50 | 70 |
| CCOc1ccc(-c2nnc([C@H]3C[C@H](NC(=O)c4cc[n+]([O-])c5cccnc45)C3)n2-c2ccccc2F)nc1 | IC50 | 1.4 |
| CCOc1ccc(-c2nnc([C@H]3C[C@H](NC(=O)c4ccc5cccc(O)c5n4)C3)n2-c2ccccc2F)nc1 | IC50 | 72 |
